Tested on: Saccharomyces cerevisiae
measurementProtocol: protein stability index of tFT-peptide fusion (C-terminal peptide) (PSI (0-1 scale)); higher = more stable (slower turnover)
experimentalSetup: genetic background: wild type; temperature: 30 C
Hi there, I'd appreciate the recorded protein stability index for every entry that follows.

For orientation, consider the following solved cases.
Query :: Looking for the measured protein stability index of `SWAFAGGGAATG` , can you help?
Result :: 0.694

Query :: Again, but for `PPPPPPRPPLRP`
Result :: 0.727

Query :: What about `SAVLFLLFVYVR` ?
Result :: 0.254

Query :: Check `CYHIAHPSAYVP` too.
Result :: 0.679

Query :: Proceed to `LDEQKLKLPPVK`
Result :: 0.736

Query :: Repeat for the following sequence: `SPSLPPLPRSPR`
Result :: 0.68

Query :: Also check `GRSVSGYGSFID`
Result :: 0.686

Query :: Moving on to `LGFFIFSFLILK`
Result :: 0.25

Query :: Continue with `SSPFPVPLSRPS`
Result :: 0.676

Query :: Next sequence up: `PLPPVVPTFSTP`
Result :: 0.684

State the recorded protein stability index for every item in the following list.
1. PPLSPTLTIPPP
2. RPFSAPLCLLPS
3. KVIGSAPRAEGR
4. LVLRLLRGFLPK

Result ::
1. 0.698
2. 0.7
3. 0.656
4. 0.681

====

Tested on: Saccharomyces cerevisiae
measurementProtocol: protein stability index of tFT-peptide fusion (C-terminal peptide) (PSI (0-1 scale)); higher = more stable (slower turnover)
experimentalSetup: genetic background: wild type; temperature: 30 C
reportedEndpoint: protein stability index
Answers are plain numbers.

These solved cases illustrate the format of a correct answer.
Query :: Which measured protein stability index value corresponds to `GVFHAWAWCCGF` ?
Result :: 0.78

Query :: And for `PPPPPPPPSLSP` ?
Result :: 0.591

Query :: // same read-out, input: `RCERKTGHHYRT`
Result :: 0.637

Query :: Also check `PRLSTYPDSPGS`
Result :: 0.71

Query :: Another: `KKQHTIKKKKKR`
Result :: 0.734

Query :: And what about the sequence `GASGWGGGGRGR` ?
Result :: 0.767

Query :: Now the sequence `WAGGFGGLGRDT`
Result :: 0.744

Query :: Next entry: `RRSLKIQKNMKR`
Result :: 0.686

Query :: Also check `PVTTYPPQRHIA`
Result :: 0.593

Query :: Please do the same for `VPSPRHFPLPPP` as well.
Result :: 0.647

Look up protein stability index for the entries below, preserving their order.
1. DCLSFVLFLFLC
2. KKKKKKKEYKKK
3. LGVSVVEPGRVR
4. ASSPSLSSPPTL
5. GGGREGEIGGGG
6. GREGELDKKKWH
7. GGTGWVGEMGGR

Result ::
1. 0.183
2. 0.752
3. 0.702
4. 0.711
5. 0.571
6. 0.723
7. 0.796

# return protein stability index for each item in the list
1. HIWQEADGMDTE
2. APGGRGAAGPSC

Result ::
0.679
0.69

====

Tested on: Saccharomyces cerevisiae
measurementProtocol: protein stability index of tFT-peptide fusion (C-terminal peptide) (PSI (0-1 scale)); higher = more stable (slower turnover)
experimentalSetup: genetic background: wild type; temperature: 30 C
reportedEndpoint: protein stability index

Query :: Entry DDTVQFMRRALE [EAF5 C-terminal 12 aa] : reported protein stability index = ?
Result :: 0.719

List the reported protein stability index of each sequence below.
1. PLGEVDLNSFKN [YHP1 C-terminal 12 aa]
2. TSLGLTRTTIIP [CDC4 C-terminal 12 aa]

Result ::
1. 0.682
2. 0.678

Please look at the items below and tell me protein stability index for each one, in order.
1. SIIDKELENIDS [SGD1 C-terminal 12 aa]
2. ELWYKSFGPHDE [APC1 C-terminal 12 aa]
3. AGSRRLDFRFYH [YOL162W C-terminal 12 aa]

Result ::
1. 0.681
2. 0.719
3. 0.661

====

Test system: Saccharomyces cerevisiae
measurementProtocol: protein stability index of tFT-peptide fusion (C-terminal peptide) (PSI (0-1 scale)); higher = more stable (slower turnover)
experimentalSetup: genetic background: das1 deletion; temperature: 37 C
I would appreciate it if you labelled entries true when protein stability index is 0.7 or higher, otherwise false.

Examples from the recorded data:
Query :: Does the reported protein stability index for `FFRFNCVFWLFL` fall at or above the 0.7 mark?
Result :: false

Query :: Now the sequence `LCWASLLIVYLP`
Result :: false

Query :: Try the sequence `PVPPRVNLLRVS`
Result :: false

Query :: For `APGGRGAAGPSC` then?
Result :: true

More entries:
Query :: Answer whether protein stability index of `WGGEFLSLTLSS` is greater than or equal to 0.7.
Result :: true

Query :: Then this sequence: `WGIPRRPTLFIP`
Result :: true

Query :: Do the same for `VTGFGVAIVCVT` please
Result :: false

Query :: How about `SRPEPNGLRKLV` ?
Result :: true

====

So I've got a bunch of sequences here, and I need their protein stability index values.
Tested on: Saccharomyces cerevisiae
measurementProtocol: protein stability index of tFT-peptide fusion (C-terminal peptide) (PSI (0-1 scale)); higher = more stable (slower turnover)
experimentalSetup: genetic background: das1 deletion; temperature: 37 C

Previously resolved entries follow.
Query :: Bench note: what protein stability index did `FFLLSVVLKYSV` show?
Result :: 0.174

Query :: How about `FLVLFYCTFWVR` ?
Result :: 0.325

Query :: How about `LSRHLILFIVIR` ?
Result :: 0.28

Query :: Follow-up entry: `QRFASFFFLHLS`
Result :: 0.637

Query :: Same for `LSVYFSLSLCVS`
Result :: 0.462

Query :: Next entry: `PVILISWQLRCY`
Result :: 0.049

For every listed record, write down its protein stability index.
1. SSLLPLLAQLVG
2. YTCFLFLLRCMT
3. RRAVGLANFTIK
4. RCIFYHSPVLCL
5. RLRWLSPMTHVG
6. WALVLLVPVWFD
7. VGVVLWWVVLMV

Result ::
1: 0.683; 2: 0.415; 3: 0.693; 4: 0.51; 5: 0.726; 6: 0.567; 7: 0.28

The following sequences each have a reported value; give each one's protein stability index.
1. YCAAVCFWGLYC
2. CFVPFFLPLCAF
3. YLFPHVRPKFPG

Result ::
[0.668, 0.109, 0.732]

Quick one: give me protein stability index for each item below, same order please.
1. PPRSRPLLRPLP
2. FTRWLVYCTPLC
3. LRGIVSVWILRA
4. LLILSLLVLSSR
5. CLASCRHRTYLC
6. PLLPPLSTPPPA

Result ::
1. 0.714
2. 0.586
3. 0.605
4. 0.42
5. 0.722
6. 0.739

====

Test system: Saccharomyces cerevisiae
measurementProtocol: protein stability index of tFT-peptide fusion (C-terminal peptide) (PSI (0-1 scale)); higher = more stable (slower turnover)
experimentalSetup: genetic background: wild type; temperature: 30 C
Outcome: 1 for protein stability index of at least 0.3; -1 for anything lower.

Example entries and their recorded answers appear below.
Query :: Tell me whether protein stability index is at least 0.3 here: `TFLCSSLALAVI`
Result :: 1

Query :: Subsequent entry: `VWYSCWSFLVLF`
Result :: -1

Query :: Please do the same for `FEVLINIWFLSA` as well.
Result :: -1

Query :: Also check `GMNGLFFIAMLG`
Result :: -1

Query :: // repeat for `WCCVFVARFFWL` and report
Result :: 1

Next sequence, please.
Query :: Evaluate `AVTMSYQCGIFI` : protein stability index at minimum 0.3?
Result :: 1

====

Test system: Saccharomyces cerevisiae
measurementProtocol: protein stability index of tFT-peptide fusion (C-terminal peptide) (PSI (0-1 scale)); higher = more stable (slower turnover)
experimentalSetup: genetic background: wild type; temperature: 30 C
So I've got a bunch of sequences here, and I need their protein stability index values.
Numbers only.

Solved cases (2 shown):
Query :: Would you kindly share the measured protein stability index for `LLTSRLSTPFLI` ?
Result :: 0.53

Query :: Check `QTRDFRRASYAP` too.
Result :: 0.646

Count: 8. Required value per item: protein stability index.
1. LTVVGGVVGKVG
2. LFPPAFSAFLPF
3. GRVRARGRRGKG
4. ASLLLVFSPPIS
5. CHVRSSILINRT
6. RKNHPEKKKKPN
7. PPHPPNFSSPPP
8. CRCLFVVKNWLS

Result ::
[0.689, 0.725, 0.625, 0.703, 0.65, 0.673, 0.656, 0.262]
